system: CAKI-1 renal; test: NCI tumour cell line growth inhibition, 48 h; in the data active = GI50 below about 0.43 µM; inactive = the rest
Give your call using only these classes: active, inactive

These solved cases illustrate the format of a correct answer.
- compound: "CC(=O)O[C@@]12CO[C@@H]1C[C@H](O)[C@@]1(C)C(=O)[C@H](O)C3=C(C)[C@@H](OC(=O)[C@H](O)[C@@H](NC(=O)OC(C)(C)C)c4ccccc4)C[C@@](O)([C@@H](OC(=O)c4ccccc4)[C@H]21)C3(C)C"
  class_assignment: "active"
- compound: "CC/C(=C(/c1ccc(OCCN(C)C)cc1)c1ccc(OC(=O)CCC(=O)c2c(C)[nH]c(/C=C3\\N=C(c4ccc[nH]4)C=C3OC)c2C)cc1)c1ccccc1"
  class_assignment: "inactive"
- compound: "CC(=O)CCc1ccc(OC2OC(COC(=O)c3cc(O)c(O)c(O)c3)C(O)C(O)C2OC(=O)/C=C/c2ccccc2)cc1 (stereo not drawn)"
  class_assignment: "inactive"
- compound: "Cc1ccc(NC(=O)Cc2ccc(/C=C/C(=O)c3ncc[nH]3)cc2)cc1"
  class_assignment: "inactive"
- compound: "CCOc1ccc(-c2cnnn2-c2nonc2-n2cccc2)cc1"
  class_assignment: "active"

## Task How was CCOc1ccccc1NC(=O)c1cc2ccccc2cc1O classified in this test?
## Result inactive

## Task Recorded test outcome, item COc1cc2c(cc1OCCCCCOc1cc3c(cc1OC)C(=O)N1CC(F)C[C@H]1C=N3)N=C[C@@H]1CC(F)CN1C2=O (stereo partly drawn)
## Result active

## Task Name the outcome recorded for N#Cc1ncc(-c2ccc(C(F)(F)F)cc2)c(NCc2cc(C(F)(F)F)cc(C(F)(F)F)c2)n1 in the assay.
## Result inactive

---

Would you kindly list TGI for each of these compounds?
tested on: NCI-H522 lung; experiment: NCI tumour cell line growth inhibition, 48 h
Give bare numbers, in µM.

Please go through the list and note TGI for each compound.
1. O=C1CS(=O)(=O)C(c2cccc(Oc3ccccc3)c2)N1c1cccc(Cl)c1 (stereo unspecified)
2. CN(C)Cc1cc(N=Nc2cccc(Cl)c2)ccc1O
3. O=C(Nc1ccc(F)cc1)Nc1ccccc1CNc1nc(Nc2ccc(OCCN3CCCC3)cc2)ncc1Cl
4. COc1ccc(/C(Cl)=C(/c2ccc(O)cc2)c2ccc(OCCN(C)C)cc2)cc1
5. O=C1c2cccnc2C(=O)C2C3C=CC(C3)C12 (stereo unspecified)
6. COC(=O)C(C)(C)OCc1ccc(C2NC(=O)N(c3cccc(Cl)c3)C(=O)N2c2cccc(Cl)c2)cc1 (stereo unspecified)
7. O=c1ccc(N=Nc2ccc([N+](=O)[O-])cc2)ccc1O
8. CCN(CC)CCCC(C)Nc1ccnc2cc3ccccc3cc12 (stereo unspecified)

## Result
1. 45.2
2. 23.9
3. 13.4
4. 25.1
5. 13.8
6. 76.8
7. 28.3
8. 29

# per-item lookup of TGI; items listed below
1. Cc1cccc2cc3c(ccc4ccccc43)c[n+]12
2. O=c1c2ccccc2c(Br)c(Br)c2ccccc12
3. COC(=O)[C@H](Cc1ccccc1)NC(=O)N1CCCN(C(=O)N[C@@H](Cc2ccccc2)C(=O)OC)CCCN(C(=O)N[C@@H](Cc2ccccc2)C(=O)OC)CCC1

## Result
[38.2, 3.47, 35.2]

---

test system: EKVX NSCLC; assay: NCI tumour cell line growth inhibition, 48 h
Exercise: state measured GI50 for each of the compounds provided.

- compound: "CC(=O)N1N=C(c2ccc(Nc3nc(Nc4ccc(Cl)cc4)nc(Nc4ccc(Cl)cc4)n3)cc2)CC1c1ccc([N+](=O)[O-])cc1 (stereo not given)"
  GI50: "4.22 µM"

# map each compound to its GI50
1. CCOc1ccc(-c2cnnn2-c2nonc2-n2cccc2)cc1
2. COc1cc2cc(C(=O)CCC(=O)O)sc2cc1OC
3. CCCCOc1ccc(NC(=O)n2nc(N)c3ccccc32)cc1
4. COc1cc(-n2cc(-c3ccc(F)cc3)nc2SCc2ccccc2)cc(OC)c1OC

## Result
["0.569 µM", "> 100 µM", "17.4 µM", "> 100 µM"]
